target-desc: CYP2D6 (Homo sapiens)
Construct: 0.1 mg/mL protein human liver microsomes (BD Gentest); tissue BD Gentest; host or cells: human liver microsomes
Sequence (P10635 whole entry): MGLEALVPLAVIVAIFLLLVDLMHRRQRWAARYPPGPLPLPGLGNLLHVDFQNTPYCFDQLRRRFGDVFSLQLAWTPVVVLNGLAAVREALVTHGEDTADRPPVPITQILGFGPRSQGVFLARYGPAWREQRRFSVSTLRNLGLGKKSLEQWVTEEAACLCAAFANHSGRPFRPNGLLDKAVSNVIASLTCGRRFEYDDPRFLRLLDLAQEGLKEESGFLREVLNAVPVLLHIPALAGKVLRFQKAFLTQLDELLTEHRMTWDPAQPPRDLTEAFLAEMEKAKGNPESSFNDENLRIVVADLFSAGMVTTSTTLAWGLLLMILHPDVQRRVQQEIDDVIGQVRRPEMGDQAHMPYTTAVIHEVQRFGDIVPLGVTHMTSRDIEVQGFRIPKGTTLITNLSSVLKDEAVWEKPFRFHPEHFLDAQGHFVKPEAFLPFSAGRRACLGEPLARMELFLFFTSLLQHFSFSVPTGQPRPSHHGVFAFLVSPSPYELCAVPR
method: Cocktail assay for CYPs, dextromethorphan O-demethylation (CYP2D6), human liver microsomes
Assay type: biochemical
condition-details: 5 μM dextromethorphan, 0.1 mg/mL human liver microsomes, 10 min at 37° C.; read-out: CYP IC50 (nM) 2D6
readout-label: IC50 (nM)

>  <molecule>
O=S(=O)(c1ccc(N2CCN(CCO)CC2)nc1)N1CCCC1c1ccccc1-c1cncn1CCc1ccc(F)cc1 (single isomer, unassigned) [Compound 35b]

>  <readout-unit>
nM

>  <IC50>
3060

$$$$
>  <molecule>
CC(C)(C)OC(=O)N1CCCC1c1ccccc1-c1cncn1CCc1ccc(F)cc1 (stereo not drawn)

>  <readout-unit>
nM

>  <IC50>
6860

$$$$
>  <molecule>
CN1CCN(c2ncc(S(=O)(=O)N3CCc4c(ncnc4-c4cncn4CCc4ccc(F)cc4)C3)s2)CC1

>  <readout-unit>
nM

>  <IC50>
6510

$$$$
>  <molecule>
COCCN(C)c1ccc(S(=O)(=O)N2CCc3c(cccc3-c3cncn3CCc3ccc(F)cc3)C2)cn1

>  <readout-unit>
nM

>  <IC50>
2720

$$$$
>  <molecule>
CN1CCCC1c1ccccc1-c1cncn1CCc1ccc(F)cc1 (single isomer, unassigned) [Compound 45a]

>  <readout-unit>
nM

>  <IC50>
4220

$$$$

(1) CC(c1ccccc1-c1cncn1CCc1ccc(F)cc1)N(C)S(=O)(=O)c1cnc(N2CCN(C)CC2)s1 (stereo not drawn)
(2) C[C@H](c1ccc(F)cc1)n1cncc1-c1ccc2c(c1)CN(S(=O)(=O)c1cnc(N)s1)CC2
(3) O=S(=O)(c1ccc(N2CCOCC2)nc1)N1CCCC1c1ccccc1-c1cncn1CCc1ccc(F)cc1 (stereo not drawn)
(4) CC(=O)Nc1ncc(S(=O)(=O)NCc2ccc(-c3cncn3CCc3ccc(F)cc3)cc2)s1
Rank by IC50 (largest to smallest). Provide the labels, sequenced as the question asks.
1, 3, 4, 2
(1: 5110 nM, 3: 2930 nM, 4: 675 nM, 2: 288 nM)

Entry source: patent US9975888B2
